This collection of values is drawn from patent US4808609A.

Test system: mice
experiment: Study of the acute toxicity (oral, mice)
Assay type: in vivo
endpoint.label: LD0 (maximum dose which does not cause any mortality in 8 days)

For orientation, consider the following solved cases.
- compound: "CC(C)(C)NCC(O)COc1ccccc1C(=O)CCc1cccc2c1CC(=O)N2 (stereo not drawn)"
  result: "> 400 mg/kg"
- compound: "CC(C)(C)NCC(O)COc1ccccc1CCCc1cccc2[nH]ccc12 (stereo not drawn)"
  result: "> 400 mg/kg"

Q. Could you share which LD0 (maximum dose which does not cause any mortality in 8 days) value was measured for CCCNCC(O)COc1ccccc1CCCc1cccc2[nH]ccc12 (stereo not drawn) ?
A. > 400 mg/kg
